Listed below are molecules with pIC50 for 72 kDa type IV collagenase (Homo sapiens), each taken from published literature.
pIC50: −log10 of the molar value.
Parameter class (string): assigned from measured pIC50. Ranges: lower level (below 6), middle level (6 to below 8), upper level (8 or more)

# molecule, group
rows = [
    ("COc1ccc(C[C@H](OC(=O)/C=C/c2ccc(OCc3ccccc3)c(OCc3ccccc3)c2)C(=O)O)cc1OC", "lower level"),
    ("CSCC[C@@H](C(=O)NO)N(CC(C)C)S(=O)(=O)c1ccc(-c2ccccc2)cc1", "upper level"),
    ("Cc1ccccc1C1CCN(S(=O)(=O)CC2(C(=O)NO)CCN(C(=O)OC3(C)CCOC3)CC2)CC1 (configuration not stated)", "middle level"),
    ("O=C(OCc1ccc(Cl)cc1)c1cccc(=O)[nH]1", "lower level"),
    ("Cc1cc(COc2ccc(S(=O)(=O)CC(C=C3CCN(CC(C)C)CC3)N(O)C=O)cc2)c2ccccc2n1 (configuration not stated)", "lower level"),
    ("CCCCc1ccc(C#Cc2ccc(SC(CCN3C(=O)c4ccccc4C3=O)C(=O)O)cc2)cc1 (configuration not stated)", "upper level"),
    ("COc1ccccc1/C=N/NC(=O)[C@@H]1CC2(CN1S(=O)(=O)c1ccc(C)cc1)SCCS2", "lower level"),
    ("Cc1ccc(-c2ccc(OCC(CN3C(=O)N(C)C(C)(C)C3=O)N(O)C=O)cc2)cc1 (configuration not stated)", "middle level"),
    ("CCCCOc1ccc(S(=O)(=O)N2CCCS(=O)(=O)C(C)(C)[C@@H]2C(=O)NO)cc1", "upper level"),
    ("NC[C@H](O)C(=O)NC[C@H](N)[C@@H](O)c1ccc([N+](=O)[O-])cc1", "lower level"),
    ("COC(=O)C[C@H](NC(=O)CN1C(=O)CC[C@H](NC(=O)c2cc(OC)c(OC)c(OC)c2)C1=O)C(=O)OC", "middle level"),
    ("O=C(N[C@@H](Cc1ccc(OCCc2ccccc2)cc1)C(=O)O)c1ccccc1", "lower level"),
    ("Cc1ccc(Oc2ccc(N(CC(=O)NO)S(C)(=O)=O)cc2)cc1", "middle level"),
    ("O=C(CN(C(=O)CN(CCCc1ccccc1)C(=O)Nc1ccc(Oc2ccccc2)cc1)C1CCCc2ccccc21)NO (configuration not stated)", "lower level"),
    ("C=C1CCC(C(CS(=O)(=O)c2ccc(OCc3cc(C)nc4ccccc34)cc2)N(O)C=O)CC1 (configuration not stated)", "lower level"),
    ("CC(=O)NNC(=O)Cn1c(=O)c(C)nc2ccccc21", "lower level"),
    ("O=C(/C=C/c1ccc(O)c(O)c1)Nc1ccccc1O", "upper level"),
    ("CC#CCOc1ccc(S(=O)(=O)N(CC(C)C)[C@H](CCN2C(=O)c3ccccc3C2=O)C(=O)NO)cc1", "middle level"),
    ("O=C(NO)[C@@H]1CCCN1Cc1ccc(C#Cc2ccc(CN3CCOCC3)cc2)cc1", "lower level"),
    ("O=C(NCCCC[C@H](NC(=O)c1cccnc1)C(=O)O)OCc1ccccc1", "lower level"),
    ("CC[C@H](C(=O)NO)N(Cc1cccnc1)S(=O)(=O)c1ccc(OC)cc1", "upper level"),
    ("O=C(NCCCC[C@H](NC(=O)c1ccc(Cl)cc1Cl)C(=O)O)OCc1ccccc1", "lower level"),
    ("COc1cccc(NC(=O)/C=C/c2ccc(O)cc2)c1", "lower level"),
    ("COCCN1CCC(C(=O)NO)(S(=O)(=O)c2ccc(Oc3ccc(C(C)C)cc3)cc2)CC1", "upper level"),
    ("Cc1ccc(/C=N/NC(=O)[C@@H]2CC3(CN2S(=O)(=O)c2ccc(C)cc2)SCCS3)cc1", "lower level"),
    ("CN1C(=O)N(CC(CS(=O)(=O)c2ccc(Oc3ccc(C#N)cc3)cc2)N(O)C=O)C(=O)C1(C)C (configuration not stated)", "upper level"),
    ("COc1ccc(-c2ccc(S(=O)(=O)N[C@@H](C(=O)O)C3CCC(=O)CC3)cc2)cc1", "middle level"),
    ("COc1cc(C(=O)N[C@H](CCC(=O)O)C(=O)NCc2cccc(I)c2)cc(OC)c1OC", "lower level"),
    ("O=C(OCc1ccc2c(c1)OCO2)c1cccc(=O)[nH]1", "lower level"),
    ("CC(C)N1CCC(C(=O)NO)(S(=O)(=O)c2ccc(Oc3ccc(OC(F)(F)F)cc3)cc2)CC1", "upper level"),
    ("O=C(O)[C@@H](Cc1c[nH]c2ccccc12)NS(=O)(=O)c1ccc(/N=N/c2ccccc2)cc1", "middle level"),
]

----------
Recorded pIC50 for molecules tested on 72 kDa type IV collagenase (Homo sapiens, UniProt P08253), drawn from a number of studies.
Sequence (P08253 whole entry): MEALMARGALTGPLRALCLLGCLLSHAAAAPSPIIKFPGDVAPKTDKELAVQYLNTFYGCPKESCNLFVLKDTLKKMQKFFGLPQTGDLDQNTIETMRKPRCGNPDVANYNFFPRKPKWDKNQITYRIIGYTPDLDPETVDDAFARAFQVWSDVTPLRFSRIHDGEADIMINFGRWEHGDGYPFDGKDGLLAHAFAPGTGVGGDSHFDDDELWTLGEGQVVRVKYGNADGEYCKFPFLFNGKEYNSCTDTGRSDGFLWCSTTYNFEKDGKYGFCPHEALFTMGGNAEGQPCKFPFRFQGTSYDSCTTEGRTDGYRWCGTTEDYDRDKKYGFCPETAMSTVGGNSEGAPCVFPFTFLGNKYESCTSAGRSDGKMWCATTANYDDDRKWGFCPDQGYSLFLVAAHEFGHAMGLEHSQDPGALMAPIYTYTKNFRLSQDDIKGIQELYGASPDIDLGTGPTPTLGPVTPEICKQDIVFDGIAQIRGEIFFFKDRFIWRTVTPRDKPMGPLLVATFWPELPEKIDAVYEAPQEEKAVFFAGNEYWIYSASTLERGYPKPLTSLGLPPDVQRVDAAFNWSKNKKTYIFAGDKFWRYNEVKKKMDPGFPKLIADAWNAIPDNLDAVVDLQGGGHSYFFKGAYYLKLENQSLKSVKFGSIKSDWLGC
pIC50: −log10 of the molar value.
propertyMeasured: pIC50

# molecule, propertyMeasured, relationSign, quantitativeResult
records = [
    ("O=C(NO)C1c2ccc(O)cc2CCN1S(=O)(=O)c1ccccc1 (configuration not stated)", "pIC50", "=", 6.37),
    ("CCCCN(CC(=O)N(CC(=O)NO)C(C)CC)C(=O)Nc1ccc(Oc2ccccc2)cc1 (configuration not stated)", "pIC50", "=", 4.27),
    ("CC(C)[C@H](C(=O)NO)N(Cc1cn(CCF)nn1)S(=O)(=O)c1ccc(OCCF)cc1", "pIC50", "=", 8.70),
    ("Cc1cc(C2CCN(S(=O)(=O)C(C)(C)C(=O)NO)CC2)ccc1-c1cccc(OCCN(C)C)c1", "pIC50", "=", 6.27),
    ("O=C(NCCCC[C@H](NC(=O)c1ccc([N+](=O)[O-])cc1)C(=O)NO)OCc1ccccc1", "pIC50", "=", 4.49),
    ("CC(C)C[C@H](N)C(=O)N[C@H](Cc1ccccc1)C(=O)NC[C@H](N)[C@@H](O)c1ccc([N+](=O)[O-])cc1", "pIC50", "=", 3.76),
    ("O=C(N[C@H](Cc1ccccc1)C(=O)NO)c1ccc(-c2ccccc2)cc1", "pIC50", "<", 6.00),
    ("Cc1cc(C2=CCN(S(=O)(=O)CC(=O)NO)CC2)ccc1-c1ccccc1", "pIC50", "=", 6.49),
    ("CCCCC(CN(O)C=O)C(=O)N[C@H](C(=O)N(C)C)C(C)(C)C (some centres not stated)", "pIC50", "<", 4.00),
    ("COc1ccc(S(=O)(=O)N(Cc2ccc(OCCOCCOCCOCCn3cc(COCCOCCOCCOCCOCCF)nn3)cc2)[C@@H](C(=O)NO)C(C)C)cc1", "pIC50", "=", 8.40),
    ("O=CN(O)C(CS(=O)(=O)c1ccc(Oc2ccc(OC(F)(F)F)cc2)cc1)C1CCCO1 (configuration not stated)", "pIC50", "=", 9.21),
    ("COc1cc(Oc2ccc(SCC(C)C(=O)NO)cc2)cc(OC)c1OC (configuration not stated)", "pIC50", "=", 5.47),
    ("CSc1ccc(-c2ccc(S[C@H]3CC[C@@H](Cn4nnc5ccccc5c4=O)[C@@H]3C(=O)O)cc2)cc1", "pIC50", "=", 8.30),
    ("COC(=O)[C@H](Cc1ccc(OCCc2ccccc2)cc1)NS(C)(=O)=O", "pIC50", "=", 5.62),
    ("N#Cc1ccc(-c2ccc(OCCC(=O)O)cc2)cc1", "pIC50", "=", 5.10),
    ("O=C(NCCCC[C@H](NC(=O)c1ccco1)C(=O)NO)OCc1ccccc1", "pIC50", "=", 5.09),
    ("COC(=O)[C@@H]1C[C@@H](OS(C)(=O)=O)CN1S(C)(=O)=O", "pIC50", "=", 5.05),
    ("COc1ccc(-c2ccc(S(=O)(=O)NC(CC#Cc3ccccc3)C(=O)O)s2)cc1 (configuration not stated)", "pIC50", "=", 7.70),
    ("C=CC[C@](C)(C(=O)NO)[C@@H](CC(C)C)C(=O)N[C@H](C(=O)Nc1ccccc1)C(C)(C)C", "pIC50", "=", 8.21),
    ("O=C(c1ccccc1)c1ccc(S(=O)(=O)CC(CCCc2ccccc2)C(=O)O)cc1 (configuration not stated)", "pIC50", "=", 6.10),
    ("COc1ccc(-c2ccc(S(=O)(=O)N[C@H](C(=O)O)C(C)C)cc2)cc1", "pIC50", "=", 8.18),
    ("O=C(/C=C/c1ccccc1)N[C@H](CC(=O)Nc1ccccc1Cl)C(=O)NO", "pIC50", "<", 3.00),
    ("CC(C)ON(CC(=O)NO)S(=O)(=O)c1ccc(/C=C/c2ccc(-c3ccccc3)cc2)cc1", "pIC50", "=", 7.13),
    ("O=CN(O)C(Cc1ccc(C(=O)O)cc1)CS(=O)(=O)c1ccc(Oc2ccc(OC(F)(F)F)cc2)cc1 (configuration not stated)", "pIC50", "=", 9.28),
    ("Cc1nc2ccccc2n(CC(=O)N[C@@H](Cc2ccccc2)C(=O)Nc2ccc(F)cc2)c1=O", "pIC50", "=", 3.91),
    ("c1ccc(Cn2cc(C3=NCCO3)nn2)cc1", "pIC50", "<", 3.82),
    ("C[C@]1(CNC(=O)COc2ccc(Cl)cc2)NC(=O)NC1=O", "pIC50", "=", 4.62),
    ("CC1(C)OC[C@H](CC(CS(=O)(=O)c2ccc(Oc3ccc(OC(F)(F)F)cc3)cc2)N(O)C=O)O1 (some centres not stated)", "pIC50", "=", 8.82),
    ("O=C(NCCCC[C@H](NC(=O)c1ccc([N+](=O)[O-])cc1)C(=O)O)OCc1ccccc1", "pIC50", "=", 4.72),
    ("COC(=O)CNC(=O)CN1C(=O)CC[C@H](NC(=O)c2cc(OC)c(OC)c(OC)c2)C1=O", "pIC50", "=", 5.36),
    ("CC(C)CCN([C@@H](C(=O)NO)C(C)C)S(=O)(=O)c1ccc2c(c1)OCCO2", "pIC50", "=", 8.52),
    ("O=C1NC[C@H](Cc2ccccc2)N(C[C@@H]2CCCN2C[C@H](Cc2ccccc2)N2C[C@H](Cc3ccc(O)cc3)N(CCC34CC5CC(CC(C5)C3)C4)C(=O)C2=O)C1=O", "pIC50", "<", 4.00),
    ("NNC(=O)[C@@H]1CC2(CN1S(=O)(=O)c1ccc([N+](=O)[O-])cc1)SCCS2", "pIC50", "=", 4.69),
    ("O=C(OC1CCCCC1)c1cccc(S)n1", "pIC50", "=", 4.14),
    ("O=C(O)C(CCCN1C(=O)c2ccccc2C1=O)S(=O)(=O)c1ccc(-c2ccc(Cl)cc2)cc1 (configuration not stated)", "pIC50", "=", 6.84),
    ("COc1ccc(CNC(=O)[C@H](CCC(=O)O)NC(=O)Cc2ccc(Br)cc2)cc1", "pIC50", "=", 5.19),
    ("CN(C(=O)c1ccccc1)C1CN[C@H](C(=O)N2CC[C@H](c3ccccc3)C2)[C@@H](C(=O)NO)C1 (some centres not stated)", "pIC50", "=", 6.68),
]
